Origin of the recorded values: patent EP4803513A1

# System: T47D cells
# ASSAY_PROTOCOL: Cell antiproliferative activity assay (CCK-8), T47D
# Assay type: cell-based
# SETTINGS: Homo sapiens, 72 h, breast cancer cell line T47D, incubation for 3 days
ENDPOINT: IC50

>>> value_observed("CNc1cc(Nc2ncc3cc(-c4nccnc4C)cc(C4CC4)c3n2)ccc1P(C)(C)=O")
"≤ 500 nM"

Task: Name the reported IC50 value associated with the compound Cc1ccncc1-c1cc(C(C)C)c2nc(Nc3cn(CC(C)(C)O)nc3C)ncc2c1
Result: ≤ 500 nM

Task: Name the reported IC50 value associated with the compound Cc1nccnc1-c1cc(C(C)C)c2nc(Nc3ccc(P(C)(C)=O)c(C)c3F)ncc2c1
Result: 500 to 1000 nM

Task: Name the reported IC50 value associated with the compound CCOc1cc(Nc2ncc3cc(-c4nccnc4C)cc(C4CC4)c3n2)ccc1P(C)(C)=O
Result: ≤ 500 nM

Task: Name the reported IC50 value associated with the compound COc1cc(Nc2ncc3cc(-c4cnccc4C)cc(C4CC4)c3n2)ccc1P(C)(C)=O
Result: ≤ 500 nM

###

Catalogue of pIC50 readings, one per entry.
# Tested on: WT-BaF3 cells
# ASSAY_PROTOCOL: Cell antiproliferative activity assay (CCK-8), WT-BaF3 (broad-spectrum cytotoxicity)
# Type: cell-based
# SETTINGS: 72 h; WT-BaF3 cells (IL-3 supplemented), CCK-8, 3 days incubation
# Text: The activity of compounds against BRK kinase can be evaluated by their inhibition of the growth of the BRK kinase-stably transfected BaF3 cell line (BRK-BaF3) and wild-type BaF3 cells (WT-BaF3). […] The larger the ratio of the half-maximal growth inhibitory concentration (IC50) of a compound between WT-BaF3 and BRK-BaF3 cells, the better the selectivity of the compound. […]
pIC50: −log10 of the molar value.

>>> value_observed("Cc1nn(CCN=S(C)(C)=O)cc1Nc1ncc2cc(-c3nccnc3C)cc(C(C)C)c2n1 [III-112]")
"< 5.60"
>>> value_observed("Cc1nccnc1-c1cc(C2CC2)c2nc(Nc3cnn(CC(=O)N(C)C)c3)ncc2c1 [III-132]")
"5.60 to 6.30"
>>> value_observed("Cc1nn(CCO)cc1Nc1ncc2cc(-c3nnccc3C#N)cc(C3CC3)c2n1 [I-118]")
"< 5.60"
>>> value_observed("Cc1ncnc(C)c1-c1cc(C(C)C)c2nc(Nc3cnn(CCO)c3)ncc2c1 [I-140]")
"5.60 to 6.30"
>>> value_observed("Cc1ncnc(C)c1-c1cc(C(C)C)c2nc(Nc3ccc(P(C)(C)=O)nc3)ncc2c1 [II-42]")
"< 5.60"
>>> value_observed("Cc1cc(Nc2ncc3cc(-c4nccnc4C)cc(C(C)C)c3n2)cnc1P(C)(C)=O [II-6]")
"< 5.60"

// next entry
Task: Name the reported pIC50 value associated with the compound Cc1nn(CCO)cc1Nc1ncc2cc(-c3c(Cl)ccnc3Cl)cc(C(C)C)c2n1 [I-44]
Result: 5.60 to 6.30

###

Catalogue of IC50 readings, one per entry.
# System: WT-BaF3 cells
# ASSAY_PROTOCOL: Cell antiproliferative activity assay (CCK-8), WT-BaF3 (broad-spectrum cytotoxicity)
# Type: cell-based
# SETTINGS: 72 h; WT-BaF3 cells (IL-3 supplemented), CCK-8, 3 days incubation

>>> value_observed("Cc1nn(CCO)cc1Nc1ncc2cc(-c3c(F)ccnc3N)cc(C(C)C)c2n1 [I-48]")
"> 2500 nM"
>>> value_observed("Cc1ccnc(F)c1-c1cc(C(C)C)c2nc(Nc3cn(CCO)nc3C)ncc2c1 [I-46]")
"500 to 2500 nM"
>>> value_observed("Cc1nn(CCO)cc1Nc1ncc2cc(-c3c[nH]nc3C)cc(C(C)C)c2n1 [I-187]")
"500 to 2500 nM"
>>> value_observed("Cc1nn(CCO)cc1Nc1ncc2cc(-c3cccnc3C#N)cc(C(C)C)c2n1 [I-26]")
"> 2500 nM"
>>> value_observed("Cc1cnn(C)c1-c1cc(C(C)C)c2nc(Nc3cn(CCO)nc3C)ncc2c1 [I-191]")
"500 to 2500 nM"

Task: Name the reported IC50 value associated with the compound Cc1ccc(-c2cc(C(C)C)c3nc(Nc4cn(CCO)nc4C)ncc3c2)c(F)n1 [I-39]
Result: 100 to 500 nM

Task: Name the reported IC50 value associated with the compound Cc1nn(CCO)cc1Nc1ncc2cc(-c3c(C)ncnc3C)cc(C(C)C)c2n1 [I-128]
Result: > 2500 nM

Task: Name the reported IC50 value associated with the compound Cc1nn(C2COC2)cc1Nc1ncc2cc(-c3nccnc3C)cc(C3CC3)c2n1 [III-113]
Result: 500 to 2500 nM

Task: Name the reported IC50 value associated with the compound Cc1nccnc1-c1cc(C(C)C)c2nc(Nc3cnn(CCO)c3C)ncc2c1 [I-102]
Result: > 2500 nM

Task: Name the reported IC50 value associated with the compound Cc1nccnc1-c1cc(C(C)C)c2nc(Nc3cn(C)nc3C(F)F)ncc2c1 [III-102]
Result: > 2500 nM

Task: Name the reported IC50 value associated with the compound COc1ncncc1-c1cc(C(F)(F)F)c2nc(Nc3cn(CCO)nc3C)ncc2c1 [I-153]
Result: > 2500 nM

Task: Name the reported IC50 value associated with the compound Cc1nn(CCO)cc1Nc1ncc2cc(-c3ccncc3)cc(C(C)C)c2n1 [I-10]
Result: 500 to 2500 nM

Task: Name the reported IC50 value associated with the compound Cc1cnc(C)c(-c2cc(C(C)C)c3nc(Nc4cn(CCO)nc4C)ncc3c2)n1 [I-96]
Result: > 2500 nM

Task: Name the reported IC50 value associated with the compound Cc1ncnc(C)c1-c1cc(C(F)(F)F)c2nc(Nc3cnn(CCO)c3)ncc2c1 [I-149]
Result: > 2500 nM

Task: Name the reported IC50 value associated with the compound Cc1nn(CC(N)=O)cc1Nc1ncc2cc(-c3cccnc3C)cc(C(C)C)c2n1 [III-128]
Result: > 2500 nM

###

# Test system: T47D cells
# ASSAY_PROTOCOL: Cell antiproliferative activity assay (CCK-8), T47D
# Format: cell-based
# SETTINGS: Homo sapiens, 72 h, breast cancer cell line T47D, incubation for 3 days
pIC50: −log10 of the molar value.
ENDPOINT: pIC50

>>> value_observed("Cc1nn(CCO)cc1Nc1ncc2cc(-c3ccnc(N)c3)cc(C(C)C)c2n1")
"6.00 to 6.30"
>>> value_observed("COc1cc(Nc2ncc3cc(-c4c(C)ncnc4C)cc(C4CC4)c3n2)ccc1P(C)(C)=O")
"6.00 to 6.30"

// next entry
Task: Name the reported pIC50 value associated with the molecule CC(C)c1cc(-c2cccnc2)cc2cnc(Nc3cn(CCO)nc3Cl)nc12
Result: ≥ 6.30

###

Catalogue of IC50 readings, one per entry.
# Test system: WT-BaF3 cells
# ASSAY_PROTOCOL: Cell antiproliferative activity assay (CCK-8), WT-BaF3 (broad-spectrum cytotoxicity)
# Assay type: cell-based
# SETTINGS: 72 h; WT-BaF3 cells (IL-3 supplemented), CCK-8, 3 days incubation

Past entries and their recorded results:
>>> value_observed("COc1cc(P(C)(C)=O)ccc1Nc1ncc2cc(-c3nccnc3C)cc(C(C)C)c2n1")
"> 2.5 µM"
>>> value_observed("COCCn1cc(Nc2ncc3cc(-c4c(C)ncnc4C)cc(C(C)C)c3n2)c(C)n1")
"> 2.5 µM"
>>> value_observed("Cc1nccnc1-c1cc(C(C)C)c2nc(Nc3cnn(CCO)c3)ncc2c1")
"0.5 to 2.5 µM"
>>> value_observed("Cc1ncnc(C)c1-c1cc(C(C)C)c2nc(Nc3cn(CCO)nc3C(F)F)ncc2c1")
"> 2.5 µM"

Task: Name the reported IC50 value associated with the compound Cc1ccc(C#N)cc1-c1cc(C(C)C)c2nc(Nc3cn(C)nc3C)ncc2c1
Result: 0.5 to 2.5 µM

Task: Name the reported IC50 value associated with the compound Cc1nn(C)cc1Nc1ncc2cc(-c3c(C)ncnc3C)cc(C(C)C)c2n1
Result: > 2.5 µM

Task: Name the reported IC50 value associated with the compound Cc1ccncc1-c1cc(C(C)C)c2nc(Nc3cn(CC(C)(C)O)nc3C)ncc2c1
Result: 0.5 to 2.5 µM

Task: Name the reported IC50 value associated with the compound Cc1cc(Nc2ncc3cc(-c4c(C)ncnc4C)cc(C(C)C)c3n2)cnc1P(C)(C)=O
Result: > 2.5 µM
